Recorded values, source ChEMBL document CHEMBL1153803.

In this section we review reported log10(IC50) values for a set of molecules.
system: Vero; experiment: Cytotoxicity against african green monkey Vero cells at after 72 hrs by MTT assay; assay type: cell-based, Chlorocebus sabaeus; details: Chlorocebus sabaeus, Vero, 72 h; read-out: IC50
Quantity name: log10(IC50) (log10 of the value in µg/mL)

Molecule: OCC(CN1CCN([C@@H](Cc2ccccc2)CN2CCCC2CN2CCNC[C@@H]2Cc2ccccc2)C[C@@H]1Cc1ccccc1)c1ccccc1 (some centres undefined)
log10(IC50): 0.03
--
Molecule: c1ccc(CCN2CCN([C@@H](Cc3ccccc3)CN3CCCC3CN3CCNC[C@@H]3Cc3ccccc3)C[C@@H]2CC2CCCCC2)cc1 (some centres undefined)
log10(IC50): -0.09
--
Molecule: c1ccc(CCN2CCN([C@@H](Cc3ccccc3)CN3CCCC3CN3CCNC[C@H]3Cc3ccccc3)C[C@@H]2Cc2ccccc2)cc1 (some centres undefined)
log10(IC50): -0.07
--
Molecule: NC[C@H](Cc1ccccc1)NC[C@@H]1CCCN1C[C@H](Cc1ccccc1)NC[C@H](Cc1ccccc1)NCCC1CC2CCC1C2 (some centres undefined)
log10(IC50): 0.01
--
Molecule: CC(CCN1CCN([C@@H](Cc2ccccc2)CN2CCCC2CN2CCNC[C@@H]2Cc2ccccc2)C[C@@H]1Cc1ccccc1)c1ccccc1 (some centres undefined)
log10(IC50): -0.06
--
Molecule: N=C1NC[C@H](Cc2ccccc2)N1CC1CCCN1C[C@H](Cc1ccccc1)N1C[C@H](Cc2ccccc2)N(CCCCC2CCCCC2)C1=N (some centres undefined)
log10(IC50): 1.16
--
Molecule: N=C1NC[C@H](Cc2ccccc2)N1CC1CCCN1C[C@H](Cc1ccccc1)N1C[C@H](Cc2ccccc2)N(CCC2CCCCC2)C1=N (some centres undefined)
log10(IC50): 1.14
--
Molecule: CCCC[C@@H](CN1CCCC1CN1CCNC[C@@H]1Cc1ccccc1)N1CCN(CCc2ccccc2)[C@@H](Cc2ccccc2)C1 (some centres undefined)
log10(IC50): 0.00
--
Molecule: c1ccc(CCN2CCN([C@@H](Cc3ccc4ccccc4c3)CN3CCCC3CN3CCNC[C@@H]3Cc3ccccc3)C[C@@H]2Cc2ccccc2)cc1 (some centres undefined)
log10(IC50): 0.00
--
Molecule: NC[C@H](Cc1ccccc1)NC[C@@H]1CCCN1C[C@H](Cc1ccccc1)NC[C@H](Cc1ccccc1)NCCC1CCCCC1
log10(IC50): 0.02
--
Molecule: c1ccc(CCN2CCN([C@@H](CC3CCCCC3)CN3CCCC3CN3CCNC[C@@H]3Cc3ccccc3)C[C@@H]2Cc2ccccc2)cc1 (some centres undefined)
log10(IC50): 0.00
--
Molecule: FC(F)(F)c1cccc(CCN2CCN([C@@H](Cc3ccccc3)CN3CCCC3CN3CCNC[C@@H]3Cc3ccccc3)C[C@@H]2Cc2ccccc2)c1 (some centres undefined)
log10(IC50): 0.05
--
Molecule: CCC(C)CN1C(=N)N([C@@H](Cc2ccccc2)CN2CCCC2CN2C(=N)NC[C@@H]2Cc2ccccc2)C[C@@H]1Cc1ccccc1 (some centres undefined)
log10(IC50): 1.57
--
Molecule: CC(C)(C)C1CCC(CN2CCN([C@@H](Cc3ccccc3)CN3CCCC3CN3CCNC[C@@H]3Cc3ccccc3)C[C@@H]2Cc2ccccc2)CC1 (some centres undefined)
log10(IC50): 0.06
